molecular target: GDP-bound KRAS wild-type protein (Homo sapiens); assay: Binding to KRAS by surface plasmon resonance (SPR), Single Cycle Kinetics; settings: SPR Single Cycle Kinetics, GDP-bound KRAS wild-type protein, 1:1 binding model; read-out: KRAS KD
Sequence (P01116 whole entry): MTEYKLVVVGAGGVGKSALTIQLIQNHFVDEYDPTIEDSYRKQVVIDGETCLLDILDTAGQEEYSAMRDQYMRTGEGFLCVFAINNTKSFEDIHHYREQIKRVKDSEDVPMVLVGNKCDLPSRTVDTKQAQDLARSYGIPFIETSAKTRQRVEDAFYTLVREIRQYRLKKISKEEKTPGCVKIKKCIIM
*1 amine or outer side, *2 acyl side, *3 side chain or, on linkers, in order; H or OH if unused. Where a SMILES comes first, the peptide text is derived from it. Bridges are numbered along the chain shown (N, C = ends). [ ]: non-standard residue; d: D form. The star is where a group is joined. hPhe(3-Cl-4-CF3) = N[C@@H](CCc1ccc(C(F)(F)F)c(Cl)c1)C(=O)O; NPrPhe(4-CF3) = CCCN[C@@H](Cc1ccc(C(F)(F)F)cc1)C(=O)O; NMeGly(cPent) = CN[C@H](C(=O)O)C1CCCC1; NMeD = CN[C@@H](CC(=O)O)C(=O)O; NMeL = CN[C@@H](CC(C)C)C(=O)O; X12 = N#CCN(CC(=O)[*:2])[*:1]; Morpholide = C1CN(*)CCO1; Ac5c = NC1(C(=O)O)CCCC1; Sar = CNCC(=O)O
Measure: Kd (nM)
Numbers only, in nM.

q: Give its Kd value. Item: CCCN1C(=O)CN(C)C(=O)CN(CC#N)C(=O)[C@H]([C@@H](C)CC)NC(=O)[C@H](CC(C)C)N(C)C(=O)C[C@@H](C(=O)N2CCOCC2)N(C)C(=O)[C@H](C2CCCC2)N(C)C(=O)C2(CCCC2)NC(=O)[C@@H]2CCCN2C(=O)[C@H](CCc2ccc(C(F)(F)F)c(Cl)c2)NC(=O)CN(C)C(=O)[C@@H]1Cc1ccc(C(F)(F)F)cc1 [PP0254] ([NMeL]I[X12][Sar][NPrPhe(4-CF3)][Sar][hPhe(3-Cl-4-CF3)]P[Ac5c][NMeGly(cPent)][NMeD]-Morpholide; lactam N-11)
a: 0.16
